experiment: refractive index (Na D-line) (dimensionless); details: 293.15 K; 101.3 kPa; Liquid; Standard Abbe refractometry
observed_property: refractive index

Quickly give me recorded refractive index for O=C(O)CS 1.5027

Quickly give me recorded refractive index for O 1.3327

Quickly give me recorded refractive index for CCCCOC=O [butyl methanoate] 1.3887

Quickly give me recorded refractive index for CCCCOC(C)=O [butyl ethanoate] 1.394

Quickly give me recorded refractive index for CC(=O)OCC(C)C [2-methylpropyl ethanoate] 1.3905
